B1: tRNA (parent)
chain: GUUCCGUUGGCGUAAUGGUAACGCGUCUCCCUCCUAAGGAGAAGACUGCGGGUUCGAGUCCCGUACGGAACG

Variants of: B1
Protocol summary: yeast fitness relative to wild type (ratio to wild type); higher = fitter; tRNA-Arg(CCU), competitive growth, 37 C, YPD
Variants at the floor of the assay were thinned out.
Value type: yeast fitness

{"Residues": "GUUCCGUUGGCGUAAUGGUAACGCGUCGCCCUCCUUAGGAGAAGACUGCGGGUUCGAGUUCCGUACGGAACG [U28G A36U C60U]", "Recorded measurement": "≤ 0.5"}
{"Residues": "GUUCCGUUGGCGUAAUAGUAACGCGUCUCCCUCUUAAGGAGAAGACAGCGGGUUCGAGUCCCGUACGCAACG [G17A C34U U47A G68C]", "Recorded measurement": "≤ 0.5"}
{"Residues": "GUUUCGUUGGCGUAAUGGUAACGCGUCUACGUCCUAAGGAGCAGUCUGCGGGUUCGAGUCCCGUACGGAACG [C4U C29A C31G A42C A45U]", "Recorded measurement": "≤ 0.5"}
